# assayed-target: PI3Kβ (p110β/p85α) (Homo sapiens, UniProt P42338)
# Sequence (P42338 whole entry): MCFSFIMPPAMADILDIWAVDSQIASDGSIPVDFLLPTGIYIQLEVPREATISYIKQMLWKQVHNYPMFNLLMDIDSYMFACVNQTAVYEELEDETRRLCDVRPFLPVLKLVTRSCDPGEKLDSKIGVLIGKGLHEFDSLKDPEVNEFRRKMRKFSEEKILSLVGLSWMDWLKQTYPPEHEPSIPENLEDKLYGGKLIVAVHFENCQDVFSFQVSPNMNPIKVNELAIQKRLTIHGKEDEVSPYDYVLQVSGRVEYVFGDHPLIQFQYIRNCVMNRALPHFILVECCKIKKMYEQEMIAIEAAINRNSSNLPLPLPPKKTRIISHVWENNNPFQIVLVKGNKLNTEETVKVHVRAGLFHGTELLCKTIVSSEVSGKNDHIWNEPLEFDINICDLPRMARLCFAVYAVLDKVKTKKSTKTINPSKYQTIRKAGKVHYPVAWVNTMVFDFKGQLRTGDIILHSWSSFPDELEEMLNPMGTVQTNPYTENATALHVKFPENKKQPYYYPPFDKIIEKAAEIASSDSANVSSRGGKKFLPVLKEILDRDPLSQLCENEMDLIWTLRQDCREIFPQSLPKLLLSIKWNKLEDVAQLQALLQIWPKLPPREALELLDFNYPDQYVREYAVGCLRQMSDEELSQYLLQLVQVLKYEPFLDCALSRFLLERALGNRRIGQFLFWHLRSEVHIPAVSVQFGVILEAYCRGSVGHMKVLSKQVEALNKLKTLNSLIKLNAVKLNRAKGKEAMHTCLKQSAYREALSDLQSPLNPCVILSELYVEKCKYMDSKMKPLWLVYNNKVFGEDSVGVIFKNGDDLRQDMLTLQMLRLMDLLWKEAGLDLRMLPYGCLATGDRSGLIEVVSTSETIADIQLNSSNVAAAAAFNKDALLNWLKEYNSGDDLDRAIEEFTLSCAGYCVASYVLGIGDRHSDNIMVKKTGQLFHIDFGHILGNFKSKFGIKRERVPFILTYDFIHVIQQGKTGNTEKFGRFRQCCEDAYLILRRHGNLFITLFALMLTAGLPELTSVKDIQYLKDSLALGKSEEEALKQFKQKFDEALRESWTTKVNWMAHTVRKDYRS
# Sequence (P27986 whole entry partner): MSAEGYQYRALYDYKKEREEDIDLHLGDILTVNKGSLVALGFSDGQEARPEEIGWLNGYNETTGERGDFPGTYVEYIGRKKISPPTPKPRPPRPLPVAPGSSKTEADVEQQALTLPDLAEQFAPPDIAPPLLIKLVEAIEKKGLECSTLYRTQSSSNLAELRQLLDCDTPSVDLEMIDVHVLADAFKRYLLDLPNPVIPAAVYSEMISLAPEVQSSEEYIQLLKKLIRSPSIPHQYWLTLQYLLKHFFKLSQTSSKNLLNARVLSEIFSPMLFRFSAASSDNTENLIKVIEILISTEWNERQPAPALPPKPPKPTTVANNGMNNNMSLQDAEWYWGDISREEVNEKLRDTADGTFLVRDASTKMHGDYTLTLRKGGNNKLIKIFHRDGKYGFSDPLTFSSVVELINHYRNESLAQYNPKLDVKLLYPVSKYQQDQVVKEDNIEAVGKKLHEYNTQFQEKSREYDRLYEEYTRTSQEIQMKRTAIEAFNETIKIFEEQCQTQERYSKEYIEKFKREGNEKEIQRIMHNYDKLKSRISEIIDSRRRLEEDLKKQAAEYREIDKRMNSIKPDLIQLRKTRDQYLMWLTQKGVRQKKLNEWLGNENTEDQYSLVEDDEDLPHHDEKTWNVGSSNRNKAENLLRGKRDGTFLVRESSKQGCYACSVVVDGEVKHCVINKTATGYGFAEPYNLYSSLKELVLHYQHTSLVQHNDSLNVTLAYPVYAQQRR
# assay-notes: cell-free PI3K HTRF assay, PI3Kβ
pIC50: −log10 of the molar value.
Response key: TRUE means pIC50 >= 6; FALSE means pIC50 < 6.

1. Cc1cc(-c2cccc3cc(C4CCCN4c4ncnc(N)c4C#N)c(N(C)C)nc23)cn(C)c1=O (centres unmarked) | TRUE
2. Cn1cc(-c2cccc3cc(C4CCCN4c4nc(N)nc(N)c4C#N)c(N4CCOCC4)nc23)c2cc[nH]c2c1=O (centres unmarked) | TRUE
3. CC(C)Nc1nc2c(-c3cn(C)c(=O)c4[nH]ccc34)cccc2cc1C1CCCN1c1ncnc(N)c1C#N (centres unmarked) | FALSE
4. Cn1cc(-c2cccc3cc([C@@H]4CCCN4c4nc(N)nc(N)c4C#N)c(N4CCOCC4)nc23)c2cc[nH]c2c1=O | TRUE

Entry source: patent US20190308963A1
